Reported values of Hepatotoxicity (acute) for individual entries
conditions: human, serum
measured_attribute: Hepatotoxicity (acute)

compound=CO[C@H]1/C=C/O[C@@]2(C)Oc3c(C)c(O)c4c(c3C2=O)C2=NC3(CCN(CC(C)C)CC3)NC2=C(NC(=O)/C(C)=C\C=C\[C@H](C)[C@H](O)[C@@H](C)[C@@H](O)[C@@H](C)[C@H](OC(C)=O)[C@@H]1C)C4=O measured_attribute="Hepatotoxicity (acute)" endpoint_result=2
compound="CN(C)C(=O)Oc1cc(OC(=O)N(C)C)cc(C(O)CNC(C)(C)C)c1 (configuration not stated)" measured_attribute="Hepatotoxicity (acute)" endpoint_result=0
compound=COc1ccc(CCN(C)CCCC2(c3ccc(OC)c(OC)c3)S(=O)(=O)CCCS2(=O)=O)cc1OC measured_attribute="Hepatotoxicity (acute)" endpoint_result=1
compound="CC1=C(C(=O)O)N2C(=O)[C@@H](NC(=O)[C@H](N)c3ccccc3)[C@H]2SC1 [CEPHALEXIN ANHYDROUS]" measured_attribute="Hepatotoxicity (acute)" endpoint_result=6
compound=CC(=O)OCC1=C(C(=O)O)N2C(=O)[C@@H](NC(=O)CSc3ccncc3)[C@H]2SC1 measured_attribute="Hepatotoxicity (acute)" endpoint_result=1
compound=CC[C@]1(O)CC[C@H]2[C@@H]3CCC4=CC(=O)CC[C@@H]4[C@H]3CC[C@@]21C measured_attribute="Hepatotoxicity (acute)" endpoint_result=11
compound=O=C(O)/C=C/C(=O)O measured_attribute="Hepatotoxicity (acute)" endpoint_result=0

---

experiment: Highest frequency of moderate liver toxicity observed during clinical trials, expressed as a percentage. [column '% BIOL' in source]; details: human
Where a SMILES comes first, the peptide text is derived from it. Bridges are numbered along the chain shown (N, C = ends). [ ]: non-standard residue; d: D form. The star is where a group is joined. Threoninol(2S,3R) = C[C@@H](O)[C@H](CO)N*
measured_attribute: Hepatotoxicity (moderate) (%)

compound="CN(c1nccc(=O)[nH]1)C1CCN(c2nc3ccccc3n2Cc2ccc(F)cc2)CC1 [MIZOLASTINE]" units_text=% endpoint_result=0
compound="C[C@@H](O)[C@H](CO)NC(=O)[C@@H]1CSSC[C@H](NC(=O)[C@H](N)Cc2ccccc2)C(=O)N[C@@H](Cc2ccccc2)C(=O)N[C@H](Cc2c[nH]c3ccccc23)C(=O)N[C@@H](CCCCN)C(=O)N[C@@H]([C@@H](C)O)C(=O)N1 (H-[dF]CF[dW]KTC-{Threoninol(2S,3R)}; disulfide 2-7)" units_text=% endpoint_result=17.6
compound=CO/N=C(\C(=O)N[C@@H]1C(=O)N2C(C(=O)O)=C(C)CS[C@H]12)c1csc(N)n1 units_text=% endpoint_result=23.1

---

test: Comments (NB not yet translated). [column 'COMMENTAIRES' in source]; details: human
measured_attribute: Hepatotoxicity (comment)

compound=C#C[C@]1(O)CC[C@H]2[C@@H]3CCC4=Cc5oncc5C[C@]4(C)[C@H]3CC[C@@]21C endpoint_result=HNF
compound=C[C@]12CC[C@@H]3c4ccc(OS(=O)(=O)O)cc4CC[C@H]3[C@@H]1CCC2=O endpoint_result=HNF
compound="CC(C)(Oc1ccc(C2CC2(Cl)Cl)cc1)C(=O)O (stereo not given) [CIPROFIBRATE]" endpoint_result=AC_ANTI-N
compound=Cc1ncc(CSSCc2cnc(C)c(O)c2CO)c(CO)c1O endpoint_result=CHOLESTASE_PROLONGEE
compound="NS(=O)(=O)c1cc2c(cc1Cl)N=CNS2(=O)=O [CHLOROTHIAZIDE]" endpoint_result=#CBP
compound=C[C@]12CC[C@H]3[C@@H](CCC4=CC(=O)CC[C@@H]43)[C@@H]1CC[C@@H]2O endpoint_result=CHOLESTASE_PROLONGEE
compound=Nc1c(CC(=O)O)cccc1C(=O)c1ccc(Br)cc1 endpoint_result=AC_ANTI-N
compound="O=C(O)C1N=C(c2ccccc2)c2cc(Cl)ccc2NC1=O (stereo not given) [CLORAZEPIC ACID]" endpoint_result=CHOLESTASE_PROLONGEE

All figures here come from ChEMBL document CHEMBL3137667.
